The reported numbers originate from ChEMBL document CHEMBL4376839.

assay target: UniProtKB P30542
pKi: −log10 of the molar value.
assay metric: pKi

Cc1cccc2cc(-c3ccccc3)c(=O)oc12
4.83
CC(=O)COc1cccc2cc(-c3ccccc3)c(=O)oc12
4.98
O=c1oc2c(O)cccc2cc1-c1ccccc1
5.34

A. O=c1oc2c(O)c(O)ccc2cc1-c1ccc(O)cc1
B. O=c1oc2c(O)cccc2cc1-c1ccc(O)c(O)c1
Given the listed records, identify the one among A and B with higher pKi. Your answer should be the label attached to the chosen record.
B

---

assay target: Adenosine receptor A3 (Homo sapiens)
assay details: Antagonist activity at human adenosine receptor A3 expressed in CHO cells assessed as suppression of NECA-induced decrease of cAMP accumulation by Glo-sensor cAMP assay
assay metric: IC50 (µM)

COc1ccc(-c2cc3cccc(OC)c3oc2=O)cc1
25.3

P. CCOc1cccc2cc(-c3ccc(OC)cc3)c(=O)oc12
Q. CCOc1cccc2cc(-c3ccc(C)cc3)c(=O)oc12
Which item exceeds the other in IC50, P or Q ? Mark your selection by writing its label.
P
(P: 29.5 µM, Q: 18.4 µM)

---

Recorded below: Ki, system Adenosine receptor A2a (Homo sapiens).

Record excerpt, results attached:
CC(=O)Oc1ccc(-c2cc3ccc(OC(C)=O)c(OC(C)=O)c3oc2=O)cc1OC(C)=O
> 100 µM
COc1ccc(-c2cc3cccc(OC)c3oc2=O)cc1
> 100 µM
CCOc1cccc2cc(-c3cc(OC)c(OC)c(OC)c3)c(=O)oc12
> 100 µM
CCOc1cccc2cc(-c3ccc(C)cc3)c(=O)oc12
> 60 µM
CCOc1cccc2cc(-c3ccc(OC)c(OC)c3)c(=O)oc12
> 100 µM

For the record O=c1oc2c(O)cccc2cc1-c1ccc(Br)cc1 , what value of Ki is listed for Adenosine receptor A2a (Homo sapiens)?
> 100 µM

---

Target protein (sequence): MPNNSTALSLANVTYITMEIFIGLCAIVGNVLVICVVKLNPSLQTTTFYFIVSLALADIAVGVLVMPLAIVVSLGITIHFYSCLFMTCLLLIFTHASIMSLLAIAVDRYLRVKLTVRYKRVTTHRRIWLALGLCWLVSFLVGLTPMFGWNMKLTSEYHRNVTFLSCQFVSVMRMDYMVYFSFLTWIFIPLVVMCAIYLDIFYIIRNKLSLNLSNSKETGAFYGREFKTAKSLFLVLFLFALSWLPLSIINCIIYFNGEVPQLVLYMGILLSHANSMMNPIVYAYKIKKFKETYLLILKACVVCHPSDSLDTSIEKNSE
assay metric: Ki (µM)

Use the examples below as a reference point.
Cc1ccc(-c2cc3cccc(C)c3oc2=O)cc1
16.6
CCOc1cccc2cc(-c3ccccc3)c(=O)oc12
22.5
O=c1oc2c(O)cccc2cc1-c1ccc(O)c(O)c1
23.6
Cc1cccc2cc(-c3cc(O)c(O)c(O)c3)c(=O)oc12
14.3
CC(=O)COc1cccc2cc(-c3ccccc3)c(=O)oc12
7.06

1. CC(=O)Oc1cccc2cc(-c3ccccc3)c(=O)oc12
2. CCOc1cccc2cc(-c3ccc(OC)cc3OC)c(=O)oc12
Short answer wanted: higher Ki, 1 or 2 ? In your reply, give the label of the chosen option.
2

---

// values below are reported pKi
Target chain: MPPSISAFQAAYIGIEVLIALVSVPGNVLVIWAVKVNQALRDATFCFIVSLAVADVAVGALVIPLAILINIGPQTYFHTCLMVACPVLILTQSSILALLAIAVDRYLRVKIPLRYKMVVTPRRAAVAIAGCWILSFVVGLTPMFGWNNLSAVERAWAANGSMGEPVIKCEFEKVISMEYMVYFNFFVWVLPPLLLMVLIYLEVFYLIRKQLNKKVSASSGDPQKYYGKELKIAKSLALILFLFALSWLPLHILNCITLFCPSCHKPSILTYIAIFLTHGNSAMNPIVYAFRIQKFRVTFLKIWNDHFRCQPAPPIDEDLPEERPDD
pKi: −log10 of the molar value.

Example entries and their recorded answers appear below.
CCOc1cccc2cc(-c3cc(OC)c(OC)c(OC)c3)c(=O)oc12
< 4.00
COc1cc(-c2cc3cccc(C)c3oc2=O)cc(OC)c1OC
< 4.22
CC(=O)COc1cccc2cc(-c3ccc(Br)cc3)c(=O)oc12
< 4.00
O=c1oc2c(O)cccc2cc1-c1ccc(Br)cc1
< 4.00
O=c1oc2c(O)c(O)ccc2cc1-c1ccccc1
5.62
CC(=O)Oc1ccc2cc(-c3ccccc3)c(=O)oc2c1OC(C)=O
5.07
COc1ccc(-c2cc3cccc(C)c3oc2=O)cc1OC
< 4.00
CC(=O)COc1cccc2cc(-c3ccc(C)cc3)c(=O)oc12
< 4.00

Fill in the blank: the reported pKi of CCOc1cccc2cc(-c3ccccc3)c(=O)oc12 is ____.
4.66

Recorded pKi of COc1cccc2cc(-c3ccc([N+](=O)[O-])cc3)c(=O)oc12 , please.
< 4.00

// lookup pKi for CCOc1cccc2cc(-c3ccc(OC)c(OC)c3)c(=O)oc12
< 4.00
